- Measured on: Aβ-heme peroxidase (Homo sapiens, UniProt P05067)
- Construct: Amyloid-β (Aβ) peptide (American Peptide, Sunnyvale, Calif.) is dissolved in distilled deionized water; purchased American Peptide, Sunnyvale, Calif
- Sequence (P05067 672-711 limits assumed): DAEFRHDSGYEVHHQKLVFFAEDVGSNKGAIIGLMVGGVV
- Experiment summary: Inhibition of Aβ-heme peroxidase activity (TMB assay or HPLC); inhibitor screen
- Format: biochemical
- Condition details: TMB assay; library screen
Parameter: identified as inhibitor of Aβ-heme peroxidase activity in library screen

Sample records with identified as inhibitor of Aβ-heme peroxidase activity in library screen:
[
  {
    "Molecule": "CN(C)c1ccc2nc3ccc(N)cc3[s+]c2c1.[Cl-] [azure A]",
    "Result": "inhibitors"
  },
  {
    "Molecule": "Cc1cc2nc3ccc(N(C)C)cc3[s+]c2cc1N.[Cl-] [toluidine blue]",
    "Result": "inhibitors"
  },
  {
    "Molecule": "CC(=O)NO [N-(acetyl)hydroxylamine]",
    "Result": "inhibitors"
  },
  {
    "Molecule": "CC(C)(C)NO [N-tert-butylhydroxylamine]",
    "Result": "inhibitors"
  },
  {
    "Molecule": "O=[N+]([O-])CCCNO [N-(3-nitropropyl)hydroxylamine]",
    "Result": "inhibitors"
  }
]

QUERY: Looking for the measured identified as inhibitor of Aβ-heme peroxidase activity in library screen of ONC1CCCCC1 [N-cyclohexylhydroxylamine] , can you help?
RESULT: inhibitors

QUERY: Looking for the measured identified as inhibitor of Aβ-heme peroxidase activity in library screen of O=C(CNO)Cc1ccccc1 [N-(benzylcarbonyl)methylhydroxylamine] , can you help?
RESULT: inhibitors

QUERY: Looking for the measured identified as inhibitor of Aβ-heme peroxidase activity in library screen of O=C(O)CCNO [N-(2-carboxyethyl)hydroxylamine] , can you help?
RESULT: inhibitors

QUERY: Looking for the measured identified as inhibitor of Aβ-heme peroxidase activity in library screen of CC(C)NO [N-isopropylhydroxylamine] , can you help?
RESULT: inhibitors

QUERY: Looking for the measured identified as inhibitor of Aβ-heme peroxidase activity in library screen of Cc1cc(N(C)C)cc2[s+]c3cc(N(C)C)cc(C)c3nc12 [1-9-dimethyl methylene blue] , can you help?
RESULT: inhibitors

QUERY: Looking for the measured identified as inhibitor of Aβ-heme peroxidase activity in library screen of CCNc1cc2[s+]c3cc(NCC)c(C)cc3nc2cc1C.[Cl-] [new methylene blue] , can you help?
RESULT: inhibitors

QUERY: Looking for the measured identified as inhibitor of Aβ-heme peroxidase activity in library screen of OCCCCNO [N-(4-hydroxybutyl)hydroxylamine] , can you help?
RESULT: inhibitors

QUERY: Looking for the measured identified as inhibitor of Aβ-heme peroxidase activity in library screen of CNc1ccc2nc3ccc(N)cc3[s+]c2c1.[Cl-] [azure C] , can you help?
RESULT: inhibitors
